- SYSTEM_NAME: anti-MTX VHH
- Construct: nanoCLAMP8-VHH fusion for the crystal structure 7RG7
- ASSAY_PROCEDURE: microscale thermophoresis (EGFP-VHH titrated with MTX); […] Å crystal structure of the ternary complex with nanoCLAMP8
MEASUREMENT_TYPE: pKd
Recall that pKd is obtained by taking minus log10 of the concentration measured in molar.

Documented pKd of CN(Cc1cnc2nc(N)nc(N)c2n1)c1ccc(C(=O)N[C@@H](CCC(=O)O)C(=O)O)cc1 [MTX, methotrexate] : 8.37
